# Method description: chemical genetic growth profiling, strain panel (AID 1159580);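 also: tested at 20 µM; growth read once vehicle control cultures reached saturation at 30 °C; 1 = growth at the plate median or of vehicle wells; lower values mean less growth of the strain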
# Condition notes: S. cerevisiae deletion strains, growth OD, locus YLL041C, strain sdh2, active compounds read low
Out of some 5,500 compounds screened, about 2,000 (36%) were called active. Another 18% or so got no clear call; they are omitted. The list shows a part of the results.
Parameter: normalized growth

>>> number("CC1(C)S[C@@H]2[C@H](NC(=O)[C@H](N)c3ccccc3)C(=O)N2[C@H]1C(=O)O")
0.976
>>> number("NS(=O)(=O)c1cc2c(cc1Cl)NC=NS2(=O)=O")
1
>>> number("CC[C@@H]1C=C/C=C/C[C@H](C)[C@@H](O)[C@](C)(O)C(=O)[C@H](C)[C@@H](O)[C@H](C)C(=O)[C@H](C)[C@@H](O)[C@H](C)/C=C/C(=O)O[C@H]2[C@@H](C)[C@@H](CC1)O[C@@]1(CC[C@@H](C)[C@@H](C[C@H](C)O)O1)[C@@H]2C")
1.01
>>> number("COC(=O)C1=COC(OC2OC(CO)C(O)C(O)C2O)C2C(C)CC(=O)C12 (centres undefined)")
1.02
>>> number("CCCCNC(=O)NS(=O)(=O)c1ccc(C)cc1")
1.01
>>> number("Cc1ccc(S(=O)(=O)NC(=O)NN2CCCCCC2)cc1")
0.99
>>> number("CCN1CCCC(OC(=O)C(c2ccccc2)c2ccccc2)C1 (centres undefined)")
0.987
>>> number("CNC(=O)O/N=C(\\C)SC")
0.999
>>> number("O=C1CCC(N2C(=O)c3ccccc3C2=O)C(=O)N1 (centres undefined)")
1.03
